IC50 values by entry
Target: Met kinase domain (GST fusion protein) (Homo sapiens, UniProt P08581)
Construct: Purified GST fusion protein containing the Met kinase domain
Sequence (P08581 1078-1345 limits assumed): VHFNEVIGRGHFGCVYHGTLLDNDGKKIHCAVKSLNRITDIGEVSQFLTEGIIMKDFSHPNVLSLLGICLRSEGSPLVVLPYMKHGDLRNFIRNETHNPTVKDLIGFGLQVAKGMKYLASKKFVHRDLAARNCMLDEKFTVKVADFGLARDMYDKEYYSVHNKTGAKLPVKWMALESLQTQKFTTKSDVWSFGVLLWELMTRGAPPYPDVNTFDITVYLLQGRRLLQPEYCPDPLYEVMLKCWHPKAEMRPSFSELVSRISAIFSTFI
Test: Met transphosphorylation assay (ELISA, poly(glu-tyr) substrate);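 note: Cell-free ELISA with plate-bound poly(Glu:Tyr 4:1) phosphorylated by GST-fused Met kinase domain plus ATP and Mn2+, phosphotyrosine detected by anti-phosphotyrosine antibody with HRP and ABTS read-out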
Assay type: biochemical
Settings: read-out: Met IC50
Value expressed in nM; do not type the unit.

Worked cases, IC50 given:
smi | tgt | readout | assayResult
Nc1ncc(-c2ccc(C(=O)N3CCC[C@@H]3CNCC3CC3)cc2)cc1OCc1c(Cl)cccc1Cl | Met kinase domain (GST fusion protein) (Homo sapiens, UniProt P08581) | IC50 | 370
Nc1ncc(-c2ccc(OCCN3CCOCC3)cc2)cc1OCc1cccc([N+](=O)[O-])c1 | Met kinase domain (GST fusion protein) (Homo sapiens, UniProt P08581) | IC50 | 12600

Now look at this entry.
Prompt: Note down IC50 recorded for CN(C)[C@@H]1CCN(C(=O)c2cc3cc(-c4cnc(N)c(OCc5c(Cl)cccc5Cl)c4)ccc3[nH]2)C1
Completion: 180
